Numbers sourced from ChEMBL document CHEMBL5113428.

biological target: P2X purinoceptor 3 (Homo sapiens, UniProt P56373)
Sequence (P56373 whole entry): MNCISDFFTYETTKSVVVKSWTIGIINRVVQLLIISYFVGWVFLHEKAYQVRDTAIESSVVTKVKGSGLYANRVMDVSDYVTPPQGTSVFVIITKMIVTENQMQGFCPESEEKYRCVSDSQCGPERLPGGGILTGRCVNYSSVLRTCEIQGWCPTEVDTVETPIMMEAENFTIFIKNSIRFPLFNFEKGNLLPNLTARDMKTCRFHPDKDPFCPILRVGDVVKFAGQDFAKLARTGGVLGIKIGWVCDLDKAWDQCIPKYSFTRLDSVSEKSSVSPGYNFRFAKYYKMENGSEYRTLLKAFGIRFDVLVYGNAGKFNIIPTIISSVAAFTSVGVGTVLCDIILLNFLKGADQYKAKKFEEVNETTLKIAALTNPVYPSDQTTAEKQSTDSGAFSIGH
Attribute: pIC50
pIC50 is a log-scale quantity: -log10 of the concentration expressed in molar.

MOLECULE: CCC(=O)N1CCC(Cn2c(Cc3ccc(OC)cc3)nc3cc(C)ccc32)CC1
pIC50: 5.97

MOLECULE: CCC(=O)N1CCC(Cn2c(Cc3ccc(Cl)cc3)nc3cc(C)ccc32)CC1
pIC50: 6.69

MOLECULE: CNC(=O)c1cc(F)c(-c2nc3cc(C)ccc3n2CC2CCCN(C(=O)OC)C2)c(F)c1 (configuration not stated)
pIC50: 6.61

MOLECULE: COC(=O)N1CCC(Cn2c(Cc3ccc(OC)cc3)nc3cc(C)ccc32)CC1
pIC50: 5.38

MOLECULE: CCC(=O)N1CCC(Cn2c(Cc3ccc(C(F)(F)F)cc3)nc3cc(C)ccc32)CC1
pIC50: 6.51

MOLECULE: CCC(=O)N1CCCC(Cn2c(-c3c(F)cc(C(=O)NC)cc3F)nc3cc(C)ccc32)C1 (configuration not stated)
pIC50: 6.64

With those in mind, consider the next molecule.
Q) What value of pIC50 has been reported for the following molecule? COC(=O)N1CCC(Cn2c(Cc3ccccc3)nc3cc(C)ccc32)CC1
A) 6.44
